- measured.on: USP24 (UniProt Q9UPU5)
- Sequence (Q9UPU5 whole entry, the tested form may be a part): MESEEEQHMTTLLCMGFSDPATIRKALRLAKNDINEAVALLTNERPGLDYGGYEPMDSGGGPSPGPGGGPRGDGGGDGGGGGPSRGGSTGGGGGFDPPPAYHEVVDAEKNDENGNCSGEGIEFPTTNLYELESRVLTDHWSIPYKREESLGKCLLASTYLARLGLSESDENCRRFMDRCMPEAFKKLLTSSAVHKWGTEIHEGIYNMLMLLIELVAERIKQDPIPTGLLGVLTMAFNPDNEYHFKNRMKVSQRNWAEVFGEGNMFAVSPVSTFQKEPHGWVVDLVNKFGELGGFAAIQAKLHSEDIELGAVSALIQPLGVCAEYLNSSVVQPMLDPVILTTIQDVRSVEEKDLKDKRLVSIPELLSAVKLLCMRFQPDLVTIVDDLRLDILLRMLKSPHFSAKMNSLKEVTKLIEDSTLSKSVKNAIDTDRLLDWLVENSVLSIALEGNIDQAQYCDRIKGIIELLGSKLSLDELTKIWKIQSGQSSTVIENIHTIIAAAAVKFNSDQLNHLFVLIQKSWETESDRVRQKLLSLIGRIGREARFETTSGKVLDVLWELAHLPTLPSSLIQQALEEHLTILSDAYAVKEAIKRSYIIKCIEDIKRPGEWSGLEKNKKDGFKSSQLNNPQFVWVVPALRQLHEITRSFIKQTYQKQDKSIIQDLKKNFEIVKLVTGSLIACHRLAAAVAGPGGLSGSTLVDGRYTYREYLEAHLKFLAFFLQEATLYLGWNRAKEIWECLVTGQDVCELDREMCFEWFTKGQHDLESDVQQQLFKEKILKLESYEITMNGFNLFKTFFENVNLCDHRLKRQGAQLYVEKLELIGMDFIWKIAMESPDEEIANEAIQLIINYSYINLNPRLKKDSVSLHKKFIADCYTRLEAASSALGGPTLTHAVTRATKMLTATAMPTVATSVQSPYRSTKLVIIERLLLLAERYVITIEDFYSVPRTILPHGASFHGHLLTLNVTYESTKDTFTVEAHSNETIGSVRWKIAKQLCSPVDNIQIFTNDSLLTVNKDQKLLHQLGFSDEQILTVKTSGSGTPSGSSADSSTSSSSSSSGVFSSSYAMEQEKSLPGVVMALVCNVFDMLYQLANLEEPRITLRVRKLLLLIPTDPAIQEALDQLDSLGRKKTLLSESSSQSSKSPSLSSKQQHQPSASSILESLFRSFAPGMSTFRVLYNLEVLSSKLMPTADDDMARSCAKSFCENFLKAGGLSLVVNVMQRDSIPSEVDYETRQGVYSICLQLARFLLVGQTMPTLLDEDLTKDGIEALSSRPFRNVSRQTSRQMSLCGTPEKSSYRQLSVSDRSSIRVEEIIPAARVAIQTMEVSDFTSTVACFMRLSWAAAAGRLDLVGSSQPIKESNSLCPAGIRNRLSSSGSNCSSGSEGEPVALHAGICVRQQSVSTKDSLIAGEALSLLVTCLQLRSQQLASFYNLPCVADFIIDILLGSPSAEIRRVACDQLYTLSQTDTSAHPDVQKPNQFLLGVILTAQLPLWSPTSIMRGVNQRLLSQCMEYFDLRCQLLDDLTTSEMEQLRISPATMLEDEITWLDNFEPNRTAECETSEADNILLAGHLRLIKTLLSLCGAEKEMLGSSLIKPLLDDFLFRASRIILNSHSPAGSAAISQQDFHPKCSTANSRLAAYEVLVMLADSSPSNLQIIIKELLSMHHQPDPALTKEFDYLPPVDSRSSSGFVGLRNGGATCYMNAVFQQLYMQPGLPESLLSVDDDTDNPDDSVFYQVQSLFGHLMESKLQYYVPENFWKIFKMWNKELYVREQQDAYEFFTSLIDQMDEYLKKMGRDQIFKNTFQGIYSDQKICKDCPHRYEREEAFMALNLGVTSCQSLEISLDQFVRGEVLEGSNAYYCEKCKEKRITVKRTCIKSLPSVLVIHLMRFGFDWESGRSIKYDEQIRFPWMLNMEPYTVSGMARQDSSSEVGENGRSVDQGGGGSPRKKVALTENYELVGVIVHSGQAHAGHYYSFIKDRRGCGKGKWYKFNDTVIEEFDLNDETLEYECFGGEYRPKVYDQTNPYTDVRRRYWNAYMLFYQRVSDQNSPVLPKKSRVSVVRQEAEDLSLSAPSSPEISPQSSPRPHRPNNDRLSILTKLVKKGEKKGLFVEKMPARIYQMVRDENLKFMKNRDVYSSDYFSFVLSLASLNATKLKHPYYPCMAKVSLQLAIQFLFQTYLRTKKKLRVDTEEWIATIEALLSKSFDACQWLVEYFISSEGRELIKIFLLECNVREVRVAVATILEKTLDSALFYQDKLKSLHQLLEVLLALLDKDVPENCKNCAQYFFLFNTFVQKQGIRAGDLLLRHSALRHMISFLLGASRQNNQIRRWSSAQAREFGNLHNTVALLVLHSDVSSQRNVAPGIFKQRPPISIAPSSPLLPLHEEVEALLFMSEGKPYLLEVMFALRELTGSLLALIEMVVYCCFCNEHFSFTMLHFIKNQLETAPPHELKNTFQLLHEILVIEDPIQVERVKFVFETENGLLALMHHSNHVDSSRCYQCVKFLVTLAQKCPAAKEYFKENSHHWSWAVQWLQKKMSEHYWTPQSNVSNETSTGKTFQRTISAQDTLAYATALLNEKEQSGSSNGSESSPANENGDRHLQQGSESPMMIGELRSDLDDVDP
- experiment.summary: log2 ratio of Biotin-Ahx-Ub-VS probe labelling (fragment/DMSO); higher = less target engagement (more negative = stronger competition), active = hit call of the paper (q ≤ 0.05, log2 ratio ≤ -1)
- setup.conditions: compound concentration: 200 uM; treatment time: 3 h
Listed molecules paired with reported log2 ratio of Biotin-Ahx-Ub-VS probe labelling
Number only, no unit.

Solved entries:
INSERT INTO results (molecule, measured_on, reported_value) VALUES
  ('Cc1cc(C2CCCN2C(=O)CCl)nn1C.Cl (stereo not given)', 'USP24 (UniProt Q9UPU5)', -0.202),
  ('COCC[C@@H](NC(=O)CCl)c1ccccc1', 'USP24 (UniProt Q9UPU5)', -0.153),
  ('O=C(CCl)N1CCC(C(O)c2ccc(F)cc2)CC1 (stereo not given)', 'USP24 (UniProt Q9UPU5)', -0.164),
  ('Cl.O=C(CN1CCN(C(=O)CCl)CC1)Nc1ccc(F)cc1', 'USP24 (UniProt Q9UPU5)', -0.098),
  ('Cl.O=C(CCl)N[C@H]1C[C@@H](n2cccn2)C1', 'USP24 (UniProt Q9UPU5)', -0.464),
  ('COc1ccc(-c2csc(NC(=O)CCl)n2)cc1', 'USP24 (UniProt Q9UPU5)', -1.44),
  ('Cc1noc(C)c1CNC(=O)CCl', 'USP24 (UniProt Q9UPU5)', -0.8),
  ('O=C(CCl)N1CCOCC1C1CC1 (stereo not given)', 'USP24 (UniProt Q9UPU5)', -0.173);

Name the recorded log2 ratio of Biotin-Ahx-Ub-VS probe labelling of the item O=C(CCl)NCc1ccc(N2CCOCC2)c(F)c1 in your answer.
0.223

Supply recorded log2 ratio of Biotin-Ahx-Ub-VS probe labelling for O=C(CCl)N1CCN(C(=O)Nc2ccccc2)CC1 here.
0.00221
